Kd values, listed per item
# test_system: T1, huIgG1 monoFc tagged GALV gp70 protein (residues 42-474) (Gibbon ape leukemia virus, UniProt P21415 42-474)
# T1 construct: also called gp70 (42-474)
# T1 sequence: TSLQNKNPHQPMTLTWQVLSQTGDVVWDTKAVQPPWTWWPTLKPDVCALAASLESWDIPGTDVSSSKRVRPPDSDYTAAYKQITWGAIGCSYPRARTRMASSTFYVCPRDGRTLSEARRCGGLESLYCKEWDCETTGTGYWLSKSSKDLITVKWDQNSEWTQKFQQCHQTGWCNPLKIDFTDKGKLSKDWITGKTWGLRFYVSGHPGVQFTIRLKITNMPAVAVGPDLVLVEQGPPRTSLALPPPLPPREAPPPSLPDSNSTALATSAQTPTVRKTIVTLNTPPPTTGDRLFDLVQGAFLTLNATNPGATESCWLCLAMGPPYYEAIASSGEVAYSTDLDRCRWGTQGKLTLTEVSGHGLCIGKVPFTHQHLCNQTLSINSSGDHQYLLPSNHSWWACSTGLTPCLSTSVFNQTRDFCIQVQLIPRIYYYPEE
# assay_procedure: BLI Octet Red96; antibody on AMC biosensor, 100 nM monoFc-gp70(42-474) analyte

binder	Kd [nM]
4F1 (antibody, V domains shown, Anti-GALV gp70; One id for the hybridoma supernatant and the recombinant murine IgG2a antibody; also called 4F1-HC / 4F1-LC1) VH: QVQLQQPGAELVRPGSSVKLSCKASGYTFTSYWMDWMKQRPGQGLEWIGHIYPSDSETHYNQKFKDRATLTVDKSSSAAFMQLSSLTSEDSAVYYCARDYYWGQGTTLTVSS VL: QAVVTQESALTTSPGETVTLTCRSSTGAVTTSNYANWVQEKPDHLFTGLIGGTNNRAPGVPARFSGSLIGDKAALTITGAQTEDEAIYFCALWYSNHLVFGGGTKLTVLQ	1.69
35C11 (antibody, V domains shown, also called 35C11-HC / 35C11-LC) VH: QVQLQQSGPELVRPGVSVKISCKVSGYTFTDYTMHWVKQSHAKSLEWIGLISTYSGKTNYNQKLKDKATMTVDKSSSTAYMELARLTSEDSAIFYCARGGLRDAMDYWGQGTSVTVSS VL: DIVLTQSPASLAVSLGQGATISCRASESVDSYGNSFMHWYQQKPGQPPKLLIYRASNLESGIPARFSGSGSGTDFTLTINPVEADDVATYYCLQSNEDPRTFGGGTKLEIK	0.0122
9A1 (antibody, V domains shown, Anti-GALV gp70; One id for the hybridoma supernatant and the recombinant murine IgG2a antibody; also called 9A1-HC3 / 9A1-LC1) VH: QVQLQQPGAELVRPGSSVRLSCKASGYTFTSYWMDWVKQRPGQGLEWIGNIYPSDSETHYNQKFKDKATLTVDKSSSTAYMQLSSLTSEDSAVYYCARDYYWGQGTTLTVSS VL: QAVVTQESALTTSPGETVTLTCRSSTGAVTRSNYANWVQEKPDHLFTGLIGGTNNRAPGVPARFSGSLIGDKAALTITGAQTEDEAIYFCALWYSNHLVFGGGTKLTVLQ	1.4

Values were extracted from patent US20240343820A1.
